system: EKVX; assay: NCI tumour cell line growth inhibition, 48 h
Activity calls are given as the source filed them. Rule as the data show it: active = GI50 up to about 1.1 µM and inactive = higher.
// classify into yes (active), no (inactive)

1) ClCc1nnc2n1-c1ccc(Cl)cc1SC2	no

Enquiry: Status in this test for O=C(NC(Cc1c[nH]c2ccccc12)C(=O)O)/C(=C/c1ccccc1)NC(=O)c1ccccc1 (stereo unspecified) ?
Return: no

Enquiry: Outcome? Cc1cccc(C2ON=C(c3ccccc3)N2C23CC4CC(CC(C4)C2)C3)c1 (stereo unspecified)
Return: no

---

system: NCI-H460; test: NCI tumour cell line growth inhibition, 48 h
Activity calls are given as the source filed them. Rule as the data show it: active = GI50 up to about 1.1 µM and inactive = higher.
Mark one answer only. Choices: Yes for active, No for inactive

1. COc1cccc2c1C(=O)c1c(O)c3c(c(O)c1C2=O)C[C@@](O)(/C(C)=N\O)C[C@@H]3OC1CC(N)C(O)C(C)O1 (stereo partly specified)	Yes
2. CC(=O)OC1CN2CCC1CC2 (stereo unspecified) [ACECLIDINE]	No
3. Cc1c(Cl)c(=O)oc2cc(OCC(O)COC(C)C)ccc12 (stereo unspecified)	No

We next turn to a different molecule, shown below.
Enquiry: Test call, this molecule: `COc1ccccc1NC(=O)NS(=O)(=O)c1ccccc1`
Return: No
